# Tested on: MOLT-4 leukemia
# experiment: NCI-60 one-dose screen, 48 h
# assayContext: 10 µM unless noted
This is part of a sample that, as a whole, favours compounds with a hit. Of some 83,000 tested, about 20% had one in any assay. Calls of active or inactive are those of the source. Rule for the calls: active = growth percent below 10; inactive = the rest.
In this exercise, the only acceptable responses are 1 (yes) = active, 0 (no) = inactive

{"columns": ["compound", "labelClass"],
 "data": [
  ["Cc1ccc(-n2nc3n(/c2=N\\C(=O)NS(=O)(=O)c2ccc(C)cc2)CCN3C2=NCCN2)cc1", "0 (no)"]
]}

What did the test return for `CSc1cccc([N+](=O)[O-])c1` ?
0 (no)

Lookup `CC(C)OC(=O)Nc1cc(F)c(F)cc1F`
0 (no)

Lookup `c1cc2ccc1CNCCN1CCNCc3ccc(cc3)Oc3ccc(cc3)CNCCN(CCNCc3ccc(cc3)O2)CCNCc2ccc(cc2)Oc2ccc(cc2)CNCC1`
1 (yes)

Lookup `Cc1cccc(C[C@H](NC(=O)Nc2ccc(Cl)cc2F)C(=O)N[C@@H]2C(=O)N3C[C@H](OC(=O)CCN(C)C)C[C@H]3C(=O)N3CCCC[C@H]3C(=O)N[C@@H](C)C(=O)N3C[C@H](C)C[C@H]3C(=O)O[C@H]2C)c1`
0 (no)

----------
# Test system: SK-MEL-5 melanoma
# experiment: NCI-60 one-dose screen, 48 h
# assayContext: 10 µM unless noted
The panel holds about 83,000 compounds, 20% with a hit somewhere; the sample as a whole holds those more often. Calls of active or inactive are those of the source. The calls were made as follows: active = growth percent below 10; inactive = the rest.
In this exercise, the only acceptable responses are active, inactive

Look over these answered cases.
{"columns": ["compound", "target", "labelClass"],
 "data": [
  ["Ic1ccc2[nH]cc(SSc3c[nH]c4ccc(I)cc34)c2c1", "SK-MEL-5 melanoma", "inactive"],
  ["CCN(CC)c1ccc2cc(C(Nc3ccc(C)cc3)c3nnnn3C(C)(C)C)c(=O)oc2c1 (centres undefined)", "SK-MEL-5 melanoma", "inactive"],
  ["O=C(CCNCc1ccccc1)c1ccccc1", "SK-MEL-5 melanoma", "inactive"],
  ["Cc1cnc(N)nc1OCCNC(=O)c1cccc(-c2ccc(S(=O)(=O)Nc3ccc4c(c3)N(C(=O)C3CC3)CCC4)cc2)c1", "SK-MEL-5 melanoma", "inactive"],
  ["COc1cc2c(=O)[nH]c3cc([N+](=O)[O-])ccc3c2cc1[N+](=O)[O-]", "SK-MEL-5 melanoma", "inactive"],
  ["C=C(C)[C@@H]1CC[C@]2(COCCC#N)CC[C@]3(C)[C@H](CC[C@@H]4[C@@](C)(CCCNCCC#N)[C@H](C(=C)C)CC[C@]43C)[C@@H]12", "SK-MEL-5 melanoma", "active"],
  ["C[C@@H](NC(=O)[C@@H](CC(=O)N1CCC(N2CCCCC2)CC1)N1C(=O)[C@@H](N2C(=O)OC[C@@H]2c2ccccc2)[C@H]1/C=C/c1cccc(Cl)c1)c1ccccc1", "SK-MEL-5 melanoma", "active"],
  ["CCOC(=O)/C(C#N)=C(\\C)CCc1ccccc1", "SK-MEL-5 melanoma", "inactive"]
]}

What did the test return for O=C1CC(c2ccc3c(c2)OCO3)Nc2ccccc21 (centres undefined) ?
inactive

----------
# System: SK-MEL-28 melanoma
# experiment: NCI-60 one-dose screen, 48 h (100 = growth as untreated, 0 = no growth, -100 = all killed)
# assayContext: 10 µM unless noted
The panel holds about 83,000 compounds, 20% with a hit somewhere; the sample as a whole holds those more often.
Listed here: items and their measured growth.
Kindly answer with a numeric value in %, unit omitted.

# growth lookup, item `O=S(=O)(NCc1ccccc1)c1ncnc2nc[nH]c12`
107

Lookup `C[C@@H]1C[C@H]2C(=O)O[C@@H](C)[C@H](NC(=O)[C@H](Cc3cc(F)cc(F)c3)NC(=O)Nc3ccc(Cl)cc3F)C(=O)N3C[C@H](O)C[C@H]3C(=O)N3CCN(C)C[C@H]3C(=O)N[C@@H](C)C(=O)N2C1`
41.3

Lookup `Cn1cc(-c2nnc(-c3cn(C)c4ncccc34)o2)c2ccccc21`
55.9

Lookup `CCN(CC)c1ccc(/C=C/C=C2\NC(=O)NC2=O)cc1`
57.5
